Measured On: IN-CTD-dCT (HIV-1, UniProt P12497 1367-1417)
Method Description: BLI; 200 mM NaCl, 37 C; EMSA: 20 mM MES pH 6.0, 150 mM NaCl, 2 mM DTT, 2 mM MgCl2, BSA, 8% PEG8000, 37 C 30 min (IN-FLm 2 h at 4 C); BLI: 50 mM HEPES pH 7.5, 200 mM NaCl, 2 mM BME, 5%
Condition Summary: protein: recombinant; tags: N-terminal 6xHis; label: 3' biotin; hairpin
Measured Attribute: Kd (nM)
Just the number in nM, nothing appended.

Input: Kd lookup needed for GGGCCAGAUCUGAGCCUGGGAGCUCUCUGGCCC (structured_RNA) [Bt-TAR] , thanks.
Output: 770
